- system-tested: E. coli GroEL/ES (Escherichia coli, UniProt P0A6F5)
- Construct: made in house; host or cells: GroEL in E. coli DH5α; GroES in E. coli BL21 (DE3)
- Sequence (P0A6F5 2-548): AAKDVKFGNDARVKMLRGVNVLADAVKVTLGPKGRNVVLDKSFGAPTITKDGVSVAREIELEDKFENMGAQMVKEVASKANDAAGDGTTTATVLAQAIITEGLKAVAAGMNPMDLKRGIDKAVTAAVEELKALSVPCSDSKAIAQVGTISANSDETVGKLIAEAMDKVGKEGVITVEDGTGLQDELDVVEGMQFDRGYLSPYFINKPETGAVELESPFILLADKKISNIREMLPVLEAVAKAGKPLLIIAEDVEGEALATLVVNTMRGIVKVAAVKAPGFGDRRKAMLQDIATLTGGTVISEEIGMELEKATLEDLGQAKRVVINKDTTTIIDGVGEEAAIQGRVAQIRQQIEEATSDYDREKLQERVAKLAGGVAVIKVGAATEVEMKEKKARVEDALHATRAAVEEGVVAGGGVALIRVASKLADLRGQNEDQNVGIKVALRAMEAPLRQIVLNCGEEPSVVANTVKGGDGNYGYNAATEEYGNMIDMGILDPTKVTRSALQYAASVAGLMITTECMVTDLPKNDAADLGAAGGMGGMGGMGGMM
- test-summary: GroEL/ES-mediated dMDH refolding assay
- Assay type: biochemical
- protocol-conditions: log of IC50 (μM scale), with standard deviation

compound	log(IC50) GroEL/ES-dMDH Refolding
O=C(Nc1ccccc1)c1ccccc1O [Compound 16, 2-Hydroxy-N-phenylbenzamide]	>2
O=C(Nc1cccc(Cl)c1)c1ccccc1 [Compound 25, N-(3-Chlorophenyl)benzamide]	>2
CN[C@H](CC(C)C)C(=O)N[C@H]1C(=O)N[C@@H](CC(N)=O)C(=O)N[C@H]2C(=O)N[C@H]3C(=O)N[C@H](C(=O)N[C@H](C(=O)O)c4cc(O)cc(O)c4-c4cc3ccc4O)[C@H](O)c3ccc(c(Cl)c3)Oc3cc2cc(c3O[C@@H]2O[C@H](CO)[C@@H](O)[C@H](O)[C@H]2O[C@H]2C[C@](C)(N)[C@H](O)[C@H](C)O2)Oc2ccc(cc2Cl)[C@H]1O [Vancomycin, vancomycin, reference compound]	>2
O=C(Nc1ccc(Sc2nc3ccccc3s2)c(Cl)c1)c1cccc(Br)c1O [Compound 2]	0.98 ± 0.23
O=C(Nc1ccc(Sc2nc3ccccc3s2)c(Cl)c1)c1cc(Br)cc(Br)c1O [Compound 1]	0.23 ± 0.28
O=C(Nc1cccc(Cl)c1)c1cccc(Br)c1 [Compound 24, 3-Bromo-N-(3-chlorophenyl)benzamide]	>2
O=C(Nc1cccc(Cl)c1)c1ccccc1O [Compound 12, N-(3-Chlorophenyl)-2-hydroxybenzamide]	>2
O=C(Nc1cccc(Cl)c1)c1cc(Br)cc(Br)c1O [Compound 9]	1.38 ± 0.15
COc1ccccc1C(=O)Nc1ccccc1 [Compound 44, 2-Methoxy-N-phenylbenzamide]	>2
COc1c(Br)cc(Br)cc1C(=O)Nc1ccccc1 [Compound 41, 3,5-Dibromo-2-methoxy-N-phenylbenzamide]	>2
O=C(Nc1ccc(Sc2nc3ccccc3s2)cc1)c1cc(Br)ccc1O [Compound 7]	1.58 ± 0.34
O=C(Nc1ccccc1)c1cccc(Br)c1 [Compound 27, 3-Bromo-N-phenylbenzamide]	>2
CC1(C)S[C@@H]2[C@H](NC(=O)[C@H](N)c3ccccc3)C(=O)N2[C@H]1C(=O)O [Ampicillin, ampicillin, reference compound]	>2
COc1ccc(Br)cc1C(=O)Nc1ccccc1 [Compound 43, 5-Bromo-2-methoxy-N-phenylbenzamide]	>2
O=C(Nc1ccccc1)c1cc(Br)cc(Br)c1O [Compound 13, 3,5-Dibromo-2-hydroxy-N-phenylbenzamide]	1.79 ± 0.10
COc1ccccc1C(=O)Nc1cccc(Cl)c1 [Compound 40, N-(3-Chlorophenyl)-2-methoxybenzamide]	>2
COc1c(Br)cc(Br)cc1C(=O)Nc1cccc(Cl)c1 [Compound 37]	>2
COc1ccc(Br)cc1C(=O)Nc1cccc(Cl)c1 [Compound 39]	>2
O=C(Nc1ccc(Sc2nc3ccccc3s2)cc1)c1cc(Br)cc(Br)c1O [Compound 5]	0.43 ± 0.19
O=C(Nc1ccccc1)c1cc(Br)ccc1O [Compound 15, 5-Bromo-2-hydroxy-N-phenylbenzamide]	>2
COc1c(Br)cccc1C(=O)Nc1ccccc1 [Compound 42, 3-Bromo-2-methoxy-N-phenylbenzamide]	>2
O=C(Nc1cccc(Cl)c1)c1cc(Br)cc(Br)c1 [Compound 23, 3,5-Dibromo-N-(3-chlorophenyl)benzamide]	>2
O=C(Nc1ccc(Sc2nc3ccccc3s2)cc1)c1ccccc1O [Compound 8]	1.60 ± 0.26
O=C(Nc1ccccc1)c1cccc(Br)c1O [Compound 14, 3-Bromo-2-hydroxy-N-phenylbenzamide]	>2
O=C(Nc1ccc(Sc2nc3ccccc3s2)c(Cl)c1)c1cc(Br)ccc1O [Compound 3]	1.57 ± 0.35
COc1c(Br)cccc1C(=O)Nc1cccc(Cl)c1 [Compound 38]	>2
O=C(Nc1cccc(Cl)c1)c1cc(Br)ccc1O [Compound 11]	>2
O=C(Nc1ccc(Sc2nc3ccccc3s2)cc1)c1cccc(Br)c1O [Compound 6]	1.52 ± 0.21
O=C(Nc1ccc(Sc2nc3ccccc3s2)c(Cl)c1)c1ccccc1O [Compound 4]	1.62 ± 0.32
O=C(Nc1ccccc1)c1cc(Br)cc(Br)c1 [Compound 26, 3,5-Dibromo-N-phenylbenzamide]	>2

* * *

Measured pIC50, listed per entry for reference.
- system-tested: human HSP60/10 (Homo sapiens)
- Construct: octa-Histidine tag (TEV-cleavable) (N, cleaved yes); made in house; host or cells: HSP60 in E. coli Rosetta 2 (DE3); HSP10 in Rosetta 2 (DE3) pLysS
- Sequence (P10809 27-573): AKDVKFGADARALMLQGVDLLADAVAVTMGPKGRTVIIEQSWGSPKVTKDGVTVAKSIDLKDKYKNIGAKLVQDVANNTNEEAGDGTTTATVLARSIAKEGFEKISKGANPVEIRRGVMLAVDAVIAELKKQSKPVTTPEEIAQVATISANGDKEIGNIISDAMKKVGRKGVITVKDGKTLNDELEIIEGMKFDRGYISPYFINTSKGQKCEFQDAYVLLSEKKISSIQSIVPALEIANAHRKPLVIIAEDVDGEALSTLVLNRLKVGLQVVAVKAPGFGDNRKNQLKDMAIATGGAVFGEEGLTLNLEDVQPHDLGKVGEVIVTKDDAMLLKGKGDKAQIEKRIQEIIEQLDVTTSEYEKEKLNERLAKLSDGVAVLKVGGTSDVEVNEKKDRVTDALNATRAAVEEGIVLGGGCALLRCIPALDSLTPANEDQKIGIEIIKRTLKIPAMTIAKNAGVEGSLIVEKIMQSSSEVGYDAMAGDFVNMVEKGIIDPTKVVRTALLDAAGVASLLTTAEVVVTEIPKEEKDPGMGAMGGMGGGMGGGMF
- test-summary: HSP60/10-mediated dMDH refolding assay
- Type: biochemical
pIC50: −log10 of the molar value.

molecule	system-tested	pIC50
CN[C@H](CC(C)C)C(=O)N[C@H]1C(=O)N[C@@H](CC(N)=O)C(=O)N[C@H]2C(=O)N[C@H]3C(=O)N[C@H](C(=O)N[C@H](C(=O)O)c4cc(O)cc(O)c4-c4cc3ccc4O)[C@H](O)c3ccc(c(Cl)c3)Oc3cc2cc(c3O[C@@H]2O[C@H](CO)[C@@H](O)[C@H](O)[C@H]2O[C@H]2C[C@](C)(N)[C@H](O)[C@H](C)O2)Oc2ccc(cc2Cl)[C@H]1O [Vancomycin, vancomycin, reference compound]	human HSP60/10 (Homo sapiens)	< 4.00
O=C(Nc1ccccc1)c1ccccc1O [Compound 16, 2-Hydroxy-N-phenylbenzamide]	human HSP60/10 (Homo sapiens)	< 4.00

* * *

EC50 listing for selected compounds.
- System: Drug sensitive Staphylococcus aureus (ATCC 25923)
- test-summary: Bacterial proliferation assay, drug sensitive S. aureus
- Assay type: cell-based
- protocol-conditions: ATCC25923, read-out: S. aureus Proliferation & Biofilm Assay EC50 Planktonic Growth
experimental-endpoint: EC50 (nM)

compound	experimental-endpoint	measured
O=C(Nc1ccc(Sc2nc3ccccc3s2)c(Cl)c1)c1cccc(Br)c1O	EC50	450
O=C(Nc1ccc(Sc2nc3ccccc3s2)c(Cl)c1)c1cc(Br)cc(Br)c1O	EC50	360
O=C(Nc1cccc(Cl)c1)c1cc(Br)ccc1O	EC50	460
O=C(Nc1ccc(Sc2nc3ccccc3s2)cc1)c1cc(Br)cc(Br)c1O	EC50	440
CN[C@H](CC(C)C)C(=O)N[C@H]1C(=O)N[C@@H](CC(N)=O)C(=O)N[C@H]2C(=O)N[C@H]3C(=O)N[C@H](C(=O)N[C@H](C(=O)O)c4cc(O)cc(O)c4-c4cc3ccc4O)[C@H](O)c3ccc(c(Cl)c3)Oc3cc2cc(c3O[C@@H]2O[C@H](CO)[C@@H](O)[C@H](O)[C@H]2O[C@H]2C[C@](C)(N)[C@H](O)[C@H](C)O2)Oc2ccc(cc2Cl)[C@H]1O [Vancomycin, vancomycin, reference compound]	EC50	670

* * *

- Test system: Pseudomonas aeruginosa (ATCC 10145)
- test-summary: Bacterial proliferation assay, P. aeruginosa
- Type: cell-based
- protocol-conditions: ATCC10145, OD600 at 6-8 h, read-out: Bacterial Proliferation EC50 P. aeruginosa
pEC50: −log10 of the molar value.
experimental-endpoint: pEC50

> print(dat)
                    structure.smiles.string  experimental.endpoint  measured
1   O=C(Nc1ccc(Sc2nc3ccccc3s2)cc1)c1ccccc1O                  pEC50    < 4.00
2           O=C(Nc1cccc(Cl)c1)c1cccc(Br)c1O                  pEC50    < 4.00
3  COc1ccccc1C(=O)Nc1ccc(Sc2nc3ccccc3s2)c(Cl)c1                  pEC50    < 4.00

* * *

- Tested on: Klebsiella Pneumonia (ATCC 13883)
- test-summary: Bacterial proliferation assay, K. pneumoniae
- Type: cell-based
- protocol-conditions: ATCC13883, OD600 at 6-8 h, read-out: Bacterial Proliferation EC50 K. pneumoniae

molecule	EC50
O=C(Nc1ccc(Sc2nc3ccccc3s2)c(Cl)c1)c1ccccc1 [Compound 19]	> 100 µM
COc1ccc(Br)cc1C(=O)Nc1cccc(Cl)c1 [Compound 39]	> 100 µM
COc1c(Br)cc(Br)cc1C(=O)Nc1ccccc1 [Compound 41, 3,5-Dibromo-2-methoxy-N-phenylbenzamide]	> 100 µM
O=C(Nc1ccc(Sc2nc3ccccc3s2)c(Cl)c1)c1cc(Br)cc(Br)c1 [Compound 17]	> 100 µM
O=C(Nc1cccc(Cl)c1)c1ccccc1O [Compound 12, N-(3-Chlorophenyl)-2-hydroxybenzamide]	> 100 µM
O=C(Nc1ccc(Sc2nc3ccccc3s2)cc1)c1ccccc1 [Compound 22]	> 100 µM
COc1ccccc1C(=O)Nc1cccc(Cl)c1 [Compound 40, N-(3-Chlorophenyl)-2-methoxybenzamide]	> 100 µM
COc1ccc(Br)cc1C(=O)Nc1ccc(Sc2nc3ccccc3s2)cc1 [Compound 35]	> 100 µM
COc1c(Br)cc(Br)cc1C(=O)Nc1ccc(Sc2nc3ccccc3s2)cc1 [Compound 33]	> 100 µM
CO[C@H]1/C=C/O[C@@]2(C)Oc3c(C)c(O)c4c(O)c(c(/C=N/N5CCN(C)CC5)c(O)c4c3C2=O)NC(=O)/C(C)=C\C=C\[C@H](C)[C@H](O)[C@@H](C)[C@@H](O)[C@@H](C)[C@H](OC(C)=O)[C@@H]1C [Rifampicin, rifampicin, reference compound]	11 µM
O=C(Nc1ccccc1)c1cccc(Br)c1 [Compound 27, 3-Bromo-N-phenylbenzamide]	> 100 µM
COc1c(Br)cc(Br)cc1C(=O)Nc1cccc(Cl)c1 [Compound 37]	> 100 µM
COc1ccccc1C(=O)Nc1ccccc1 [Compound 44, 2-Methoxy-N-phenylbenzamide]	> 100 µM
O=C(Nc1cccc(Cl)c1)c1cccc(Br)c1O [Compound 10]	> 100 µM
COc1c(Br)cccc1C(=O)Nc1cccc(Cl)c1 [Compound 38]	> 100 µM
O=C(Nc1ccccc1)c1cc(Br)ccc1O [Compound 15, 5-Bromo-2-hydroxy-N-phenylbenzamide]	78 µM
